# test_details: soluble on expression in E. coli; label from the status in PepcDB or PDB records

| macromolecule_sequence | soluble on expression in E. coli |
| --- | --- |
| MGSDKIHHHHHHMHNHPAKRINSIKLCLDVKVALTPQTESRDMAASSKDAAFWSKISRKYAADPIRNMDGYLQTLDRTKSYLKPEDHVLEIGCGTGSTALLLAPHVAHITGTDLAPGMIEIAAEKRAKEGLENVTFKVAETLDHNPQDGAYDAILAHNLLHLLHDLDQSLQRIAALTKTGGVFISKTVCAPKAGGIKYALIRALAIPLMQRIGKAPYVNFISVPDLERRIERAGFEICEVISQPGLMQSHYVVARKL | not soluble |
| MGDHYGFSLTTFSPSGKLMQIEYALNAVKNGQPSVGLRAKDGVVLATENVGSVLTDDQPKVEQISKHIGCVYSGMGPDFRILVKKARKIAMEYEMMYGEEMPTIQLVTDIAAVMQEYTQSGGVRPFGASLLIAGWDKNPGRPLLFQCDPSGAYFAWKATALGKNDVNAKTFLEKRFSEALELDDGIHTALLTLRESFDVGMNENNVEVAVCNSTGFHRLTKQQVHDHLGTL | not soluble |
